Here, each record is paired with measured ratio to parent data.
Target: T1, MBP-Sbh1 full length, P52870
T1 chain: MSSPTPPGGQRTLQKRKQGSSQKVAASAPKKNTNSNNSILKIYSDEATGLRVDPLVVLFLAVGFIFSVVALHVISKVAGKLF
Assay: pull-down (Ni-NTA capture after coexpression, Coomassie quantification)
Conditions: chain shown with the change; capture assay repeated three times; parent: 1
Output spec: single numeric token, no unit.

# query: ratio to parent of entry His-tagged ySgt2-C (ySgt2 222-346), Q12118 M323D (protein) SLNLEKTVPEQSRDADVDASQGASAGGLPDLGSLLGGGLGGLMNNPQLMQAAQKMMSNPGAMQNIQKMMQDPSIRQMAEGFASGGGTPNLSDLMNNPALRNDAGNLFGGAGAQSTDETPDNENKQ 0.29

Lookup His-tagged hSgt2-C (hSgt2 213-313), O43765 L224D; F280D (protein) TGGVGSFDIAGDLNNPGFMSMASNLMNNPQIQQLMSGMISGGNNPLGTPGTSPSQNDLASLIQAGQQDAQQMQQQNPELIEQLRSQIRSRTPSASNDDQQE 0.21

Queued: His-tagged hSgt2-C (hSgt2 213-313), O43765 F280D (protein) TGGVGSFDIAGLLNNPGFMSMASNLMNNPQIQQLMSGMISGGNNPLGTPGTSPSQNDLASLIQAGQQDAQQMQQQNPELIEQLRSQIRSRTPSASNDDQQE 0.69

Kindly review the next binder as well.
Find the recorded ratio to parent belonging to His-tagged hSgt2-C (hSgt2 213-313), O43765 L224D (protein) TGGVGSFDIAGDLNNPGFMSMASNLMNNPQIQQLMSGMISGGNNPLGTPGTSPSQNDLASLIQAGQQFAQQMQQQNPELIEQLRSQIRSRTPSASNDDQQE and report it. 0.71
